- Study System: T1, CHF-1Flu (tomato aspermy virus)
- T1 chain: RKRHKLNR
- Measurement Protocol: fluorescence polarization
pKd: −log10 of the molar value.
Property: pKd

{"Binder": "CTGCTGCTGCTGCTGCTGCTGCTGCTGCTG (structured_DNA) [d(CTG)10]", "Property": "pKd", "Reading": 6.36}

Taken from paper PMC10528708.
